Target: purified Z-AAT protein (Homo sapiens, UniProt P01009, E366K)
Construct: Purified Z-AAT protein from human plasma
Sequence (P01009 25-418 E366K): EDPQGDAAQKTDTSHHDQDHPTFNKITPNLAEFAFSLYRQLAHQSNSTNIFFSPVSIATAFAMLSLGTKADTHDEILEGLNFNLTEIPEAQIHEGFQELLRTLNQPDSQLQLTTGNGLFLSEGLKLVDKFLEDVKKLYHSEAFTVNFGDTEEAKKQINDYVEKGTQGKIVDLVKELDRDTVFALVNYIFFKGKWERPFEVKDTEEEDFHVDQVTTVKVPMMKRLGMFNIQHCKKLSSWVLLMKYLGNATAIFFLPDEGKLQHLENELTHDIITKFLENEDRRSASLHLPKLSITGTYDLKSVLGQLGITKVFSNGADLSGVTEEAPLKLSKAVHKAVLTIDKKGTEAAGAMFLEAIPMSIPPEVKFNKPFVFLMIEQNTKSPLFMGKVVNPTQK
Assay: Biochemical Assay (Z-AAT Elastase Activity Assay)
Settings: purified Z-AAT pre-incubated with compound 1 hour, then hNE; N.D. = activity not detected up to 30 μM
READOUT LABEL: IC50

Study these solved cases before continuing.
- COMPOUND: "Cc1cc(-n2c(C(C)C)c(-c3cc(C(=O)O)n(C)n3)c3cc(F)ccc32)ccc1F [Compound B5]"
  ASSAYED TARGET: "purified Z-AAT protein (Homo sapiens, UniProt P01009, E366K)"
  IC50: "> 5 µM"
- COMPOUND: "COC12CCC(c3c(-c4ccc(C(=O)O)cc4)c4c(O)cc(F)cc4n3-c3ccc(F)c(F)c3)(CC1)C2 [Compound 264]"
  ASSAYED TARGET: "purified Z-AAT protein (Homo sapiens, UniProt P01009, E366K)"
  IC50: "< 2 µM"
- COMPOUND: "Cc1cc(-n2c(C3CCOCC3)c(C3CC4(CC(C(=O)O)C4)C3)c3c(O)cccc32)ccc1F (single isomer, unassigned) [Compound 36]"
  ASSAYED TARGET: "purified Z-AAT protein (Homo sapiens, UniProt P01009, E366K)"
  IC50: "> 5 µM"

Prompt line: Quick one: give measured IC50 for Cc1cc(-c2c([C@@H]3CCCOC3)n(-c3ccc(F)c(F)c3)c3cc(F)cc(O)c23)ccc1C(=O)O (single isomer, unassigned) [Compound 440]
Response line: 2 to 5 µM

Prompt line: Quick one: give measured IC50 for COc1cc(-n2c(C3CCOCC3)c(-c3ccc(C(=O)O)c(OC)c3)c3c(O)cc(F)cc32)ccc1F [Compound 517]
Response line: > 5 µM

Prompt line: Quick one: give measured IC50 for Cc1cc(-n2c(C(C)(C)C(F)F)c(-c3ccc(C(=O)O)cc3)c3c(O)cc(F)cc32)ccc1F [Compound 376]
Response line: < 2 µM

Prompt line: Quick one: give measured IC50 for C[C@]1(O)C[C@@H](c2c(-c3ccc(C(=O)O)cc3)c3c(O)cccc3n2-c2ccc(F)cc2)C1 [Compound 389]
Response line: > 5 µM
